Taken from PubChem BioAssay.

assay: growth inhibitors of H69AR lung tumor, primary screen, human, duplicate replicates (AID 580); details: H69AR lung tumor cells viability, ATP luminescence, 72 h; at 10 µM; stronger effect = lower value;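 also: 100% = mean luminescence of untreated wells and 0% = no signal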
Entries annotated with measured viability

molecule	unitsLabel	viability
O=C(NC1CCCCCCC1)C1CCN(c2nc3ccccc3o2)CC1	%	92.2
CC(C)CCNC(=O)C(C)N(Cc1ccc(F)cc1)C(=O)c1ccc(CN2CCCCC2)o1 (centres undefined)	%	95.4
CC(=O)O[C@H]1C[C@@H]2CC[C@@H]3[C@H](CC[C@@]4(C)[C@H]3C[C@H]([N+]3(C)CCCCC3)[C@@H]4OC(C)=O)[C@@]2(C)C[C@@H]1[N+]1(C)CCCCC1	%	94.5
COC(=O)c1ccccc1NC(=O)C12CCC(C)(C(=O)O1)C2(C)C (centres undefined)	%	90.5
Cc1ccc(CCNC(=O)C2CCN(S(=O)(=O)c3cccc4nsnc34)CC2)cc1	%	95.6
COC(=O)CSc1ncccc1-c1nc2ccccc2[nH]1	%	90.8
CCN1CCN(Cc2nc3c(c(=O)[nH]c(=O)n3C)n2Cc2ccccc2Cl)CC1	%	92
O=S(=O)(Nc1nc2ccccc2nc1NCc1ccco1)c1cccs1	%	29
COc1ccc(-c2noc(COc3ccc(C)c(C)c3)n2)cc1OC	%	94.1
CC12C(=O)N(CCC(=O)O)C(=O)C1C1C=CC2C1 (centres undefined)	%	89.6
OC(CCN1CCCCC1)(c1ccccc1)c1ccccc1	%	84.1
CC(=O)Nc1ccc(Cc2ccncc2)cc1	%	96.1
CC(C)Cc1nnc(NC(=O)CCC(=O)N2CCOCC2)s1	%	96.2
CC(C)(C)OC(=O)N1CCOCCOCCN(C(=O)OC(C)(C)C)CCOCCOCC1	%	93.4
O=C(Nc1ccc(Br)c2cccnc12)c1ccc(Cn2cc(Cl)cn2)o1	%	87.4
CCc1ccc(NC(=O)c2cccnc2)cc1	%	105
CC(=O)OCC1=C(C(=O)O)N2C(=O)[C@@H](NC(=O)Cc3cccs3)[C@H]2SC1	%	94.2
OCC(O)CN1CCN(c2ccccc2)CC1 (centres undefined)	%	92.9
O=C(O)CSc1ccc2ccccc2n1	%	90
O=C(c1ccco1)N1CCN(c2nc(C(F)(F)F)nc3c2nnn3Cc2ccccc2)CC1	%	73.3
C=CCN1C(=O)CS/C1=C(\C#N)S(=O)(=O)c1ccc(C)cc1	%	85.5
[O-][n+]1onc2c1CCc1nnc(-c3ccccc3)cc1-2	%	76.2
O=C(Cc1cccs1)N(c1ccccc1)C1C=CS(=O)(=O)C1 (centres undefined)	%	106
O=C(c1csc2ccccc12)N1CCCCCC1	%	104
CC12CCC(C(=O)O)(c3nc(C#N)c(C#N)nc31)C2(C)C (centres undefined)	%	91.6
Cc1ccc(-n2c(-c3ccncc3)nnc2-c2cccs2)cc1	%	79.9
Cc1cccc(NC(=O)CC2NC3CCCCC3NC2=O)c1 (centres undefined)	%	93.6
CCOc1ccc(N(CC(=O)NCc2cccc(OC)c2)S(=O)(=O)c2c(C)noc2C)cc1	%	91.2
CC1(C)C2CCC1(CS(=O)(=O)NCc1ccc(C(=O)O)cc1)C(=O)C2 (centres undefined)	%	108
CCOc1ccccc1Nc1nc2ccccc2[nH]1	%	94.2
Cc1cc(C(=O)CSc2nnc(-c3ccccc3)n2C)c(C)n1C	%	95.5
O=C(COC(=O)c1ccccc1C(=O)c1ccccc1)c1ccco1	%	90.3
CNCCC(Oc1ccc(C(F)(F)F)cc1)c1ccccc1 (centres undefined)	%	58.5
CCN(CC)CCNC(=O)c1ccc(NC(C)=O)cc1	%	94.8
